System: Rattus norvegicus
Assay: Toxicity in awake normotensive rat assessed as heart rate at 1 mg/100 g, iv measured within 2 mins (reference value: 430 +/- 50/min)
Type: organism-based
Conditions: in vivo
MEASUREMENT_KIND: heart rate (beats/min)
The reply should be a number in beats/min, with the unit left off.

# input compound: CCCCCCCCCCCCCCCC1OCC(COP(=O)([O-])O)O1.[Na+] (stereo unspecified) ; wanted: its heart rate
310

---

System: Rattus norvegicus
Test: Toxicity in awake normotensive rat assessed as heart rate at 2 mg/100 g, iv measured within 2 mins (reference value: 420/min)
Format: organism-based
Conditions: in vivo
MEASUREMENT_KIND: heart rate (beats/min)
The figure you give is taken to be in beats/min; do not add the unit.

Which heart rate is listed for CCCCCCCCCCCCCCCC1OCC(COP(=O)([O-])O)O1.[Na+] (stereo unspecified) ?
250

---

Test system: Rattus norvegicus
Experiment: Toxicity in awake normotensive rat assessed as heart rate at 1 mg/100 g, iv measured within 2 mins (reference value: 450 +/- 57/min)
Format: organism-based
Conditions: in vivo
MEASUREMENT_KIND: heart rate (beats/min)
// units = beats/min; emit number, no label

Suppose we examine the compound CCCCCCCCCCCCCCCC1CCC(COP(=O)([O-])O)C1.[Na+] (stereo unspecified) ; what heart rate value has been reported?
375
